study target: Serotonin 2-Receptor (Rattus norvegicus, UniProt P14842)
Construct: from tissue; host or cells: intact anesthetized SD-SLC male rat (vascular response)
Sequence (P14842 whole entry): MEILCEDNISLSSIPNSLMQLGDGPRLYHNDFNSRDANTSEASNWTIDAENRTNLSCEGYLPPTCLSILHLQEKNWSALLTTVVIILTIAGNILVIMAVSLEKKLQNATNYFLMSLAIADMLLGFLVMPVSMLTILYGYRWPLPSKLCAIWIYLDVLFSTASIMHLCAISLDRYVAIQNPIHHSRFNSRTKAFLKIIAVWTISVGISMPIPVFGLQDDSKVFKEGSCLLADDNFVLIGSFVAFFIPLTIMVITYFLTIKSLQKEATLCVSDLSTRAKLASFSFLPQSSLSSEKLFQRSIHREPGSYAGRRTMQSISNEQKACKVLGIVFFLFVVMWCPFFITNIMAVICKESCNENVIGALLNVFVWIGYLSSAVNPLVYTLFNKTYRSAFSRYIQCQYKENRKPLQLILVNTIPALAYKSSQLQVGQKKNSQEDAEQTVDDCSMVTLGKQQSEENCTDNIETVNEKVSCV
test: Antagonistic activity on serotonin 2-receptor: inhibition of the serotonin-induced increase in blood pressure in anesthetized rats
Assay type: in vivo
assay setup: SD-SLC male rat, 10 mg/kg p.o.; after 60 minutes from the administration; inhibition of blood pressure increase by serotonin 300 μg/kg i.v.
Counter-ions that a name gives are not always drawn.
Label 1 (yes) for high-side Antagonistic Activity 5-HT2 (%) (at or above 90%) and 0 (no) for low-side Antagonistic Activity 5-HT2 (%) (below it).

Reference set, count: 10
>  <compound>
Cl.O=C(c1ccc(F)cc1)C1CCN(CCn2nc3n(c2=O)CCCC3)CC1

>  <study target>
Serotonin 2-Receptor (Rattus norvegicus, UniProt P14842)

>  <class>
1 (yes)

$$$$
>  <compound>
O=C(c1ccc(F)cc1)C1(O)CCN(CCn2c(=O)nc3n(c2=O)CCCC3)CC1 [Example 11, Dihydrochloride Hemihydrate]

>  <study target>
Serotonin 2-Receptor (Rattus norvegicus, UniProt P14842)

>  <class>
0 (no)

$$$$
>  <compound>
Cl.Cl.O=c1nc2n(c(=O)n1CCN1CCC(=C(c3ccc(F)cc3)c3ccc(F)cc3)CC1)CCC2

>  <study target>
Serotonin 2-Receptor (Rattus norvegicus, UniProt P14842)

>  <class>
0 (no)

$$$$
>  <compound>
Cl.O=C(c1ccc(F)cc1)C1CCN(CCn2c(=O)nc3n(c2=O)CCCC3)CC1

>  <study target>
Serotonin 2-Receptor (Rattus norvegicus, UniProt P14842)

>  <class>
1 (yes)

$$$$
>  <compound>
Cl.O=C(c1ccc(F)cc1)C1(O)CCN(CCn2nc3n(c2=O)CCCC3)CC1

>  <study target>
Serotonin 2-Receptor (Rattus norvegicus, UniProt P14842)

>  <class>
0 (no)

$$$$
>  <compound>
Cl.Cl.O=c1nc2n(c(=O)n1CCN1CCC(=C(c3ccc(F)cc3)c3ccc(F)cc3)CC1)CCCC2

>  <study target>
Serotonin 2-Receptor (Rattus norvegicus, UniProt P14842)

>  <class>
1 (yes)

$$$$
>  <compound>
Cc1nc2sccn2c(=O)c1CCN1CCC(=C(c2ccc(F)cc2)c2ccc(F)cc2)CC1 [Ritanserin, reference compound]

>  <study target>
Serotonin 2-Receptor (Rattus norvegicus, UniProt P14842)

>  <class>
0 (no)

$$$$
>  <compound>
O=C(c1ccc(F)cc1)C1CCN(CCn2c(=O)[nH]c3ccccc3c2=O)CC1 [Ketanserin, reference compound]

>  <study target>
Serotonin 2-Receptor (Rattus norvegicus, UniProt P14842)

>  <class>
1 (yes)

$$$$
>  <compound>
O=C(c1ccc(F)cc1)C1CCN(CCn2c(=O)nc3n(c2=O)CCCC3)CC1

>  <study target>
Serotonin 2-Receptor (Rattus norvegicus, UniProt P14842)

>  <class>
1 (yes)

$$$$
>  <compound>
O=c1nc2sccn2c(=O)n1CCN1CCC(=C(c2ccc(F)cc2)c2ccc(F)cc2)CC1 [Example 21, Hydrochloride]

>  <study target>
Serotonin 2-Receptor (Rattus norvegicus, UniProt P14842)

>  <class>
1 (yes)

$$$$

Prompt: Does O=C(c1ccc(Cl)cc1)C1CCN(CCn2nc3n(c2=O)CCCC3)CC1 [Example 75, Hydrochloride] have a reported Antagonistic Activity 5-HT2 (%) of at least 90%?
Response: 0 (no)

Prompt: I'd appreciate it if you could say whether CCO.Cl.O=c1n(CCN2CCC(=C(c3ccccc3)c3ccc(F)cc3)CC2)nc2n1CCCCC2 has Antagonistic Activity 5-HT2 (%) at least equal to 90%.
Response: 0 (no)

###

study target: Serotonin 2-Receptor (Rattus norvegicus)
test: Binding activity to serotonin 2-receptor, 3H-Ketanserin, rat frontal cortex membrane preparation
assay setup: calculated from the 50% inhibitory concentration, hydrochloride, read-out: dissociation constant for serotonin 2-receptor
assay metric: Ki
I'd appreciate it if you included the unit after the number.

Prompt: Quote Ki reported for O=C(c1ccc(F)cc1)C1CCN(CCn2c(=O)nc3n(c2=O)CCCC3)CC1 please.
Response: 0.015 µM

###

Tested on: ddy male mice
test: Toxicity in mice, repeated oral administration
Format: in vivo, mouse
assay setup: ddy male mice, 200 mg/kg p.o. once a day for consecutive 4 days; dead animals per group
Counter-ions that a name gives are not always drawn.
Listed next: entries and their corresponding Toxicity (Death Rate).

>  <compound>
CCO.Cl.O=c1n(CCN2CCC(=C(c3ccccc3)c3ccc(F)cc3)CC2)nc2n1CCCCC2

>  <study target>
ddy male mice

>  <Toxicity (Death Rate)>
0/5

$$$$
>  <compound>
O=C(c1ccc(Cl)cc1)C1CCN(CCn2nc3n(c2=O)CCCC3)CC1 [Example 75, Hydrochloride]

>  <study target>
ddy male mice

>  <Toxicity (Death Rate)>
0/3

$$$$
>  <compound>
Cl.O=C(c1ccc(F)cc1)C1CCN(CCn2c(=O)nc3n(c2=O)CCCC3)CC1

>  <study target>
ddy male mice

>  <Toxicity (Death Rate)>
1/5

$$$$
>  <compound>
O=C(c1ccc(F)cc1)C1CCN(CCn2nc3ccccn3c2=O)CC1 [Example 49, Hydrochloride Hemihydrate]

>  <study target>
ddy male mice

>  <Toxicity (Death Rate)>
0/5

$$$$
>  <compound>
O=c1n(CCN2CCC(=C(c3ccc(F)cc3)c3ccc(F)cc3)CC2)nc2n1CCCO2 [Example 44, Hydrochloride Hemihydrate]

>  <study target>
ddy male mice

>  <Toxicity (Death Rate)>
2/5

$$$$

Now consider the entry below.
Prompt: Provide ddy male mice Toxicity (Death Rate) reading for Cl.O=C(c1ccc(F)cc1)C1CCN(CCn2nc3n(c2=O)CCCC3)CC1 .
Response: 0/5

###

System: Sympathetic Nerve α1 -Receptor
test: Antagonistic activity on sympathetic nerve α1-receptor: inhibition of the phenylephrine-induced increase in blood pressure in anesthetized rats
Format: in vivo
assay setup: SD-SLC male rat, 10 mg/kg p.o.; after 60 minutes from the administration; inhibition of blood pressure increase by phenylephrine 100 μg/kg i.v.
Where a name gives a salt, the structure may show the parent alone.
Kindly return Condition met if reported Antagonistic Activity α1 (%) is no lower than 2%; return Condition not met if it is lower.

Here are 5 molecules together with their reported answers.
>  <molecule>
O=c1n(CCN2CCC(=C(c3ccc(F)cc3)c3ccc(F)cc3)CC2)nc2n1CCCCC2 [Example 34, Hydrochloride Hemihydrate]

>  <class>
Condition met

$$$$
>  <molecule>
CCO.Cl.O=c1n(CCN2CCC(=C(c3ccccc3)c3ccc(F)cc3)CC2)nc2n1CCCCC2

>  <class>
Condition met

$$$$
>  <molecule>
Cl.O=C(c1ccc(F)cc1)C1CCN(CCn2c(=O)nc3n(c2=O)CCCC3)CC1

>  <class>
Condition met

$$$$
>  <molecule>
Cl.Cl.O=c1nc2n(c(=O)n1CCN1CCC(=C(c3ccc(F)cc3)c3ccc(F)cc3)CC1)CCC2

>  <class>
Condition not met

$$$$
>  <molecule>
Cl.O=C(c1ccc(F)cc1)C1(O)CCN(CCn2nc3n(c2=O)CCCC3)CC1

>  <class>
Condition not met

$$$$

Prompt: Decide: is the reported value of Antagonistic Activity α1 (%) for Cc1nc2sccn2c(=O)c1CCN1CCC(=C(c2ccc(F)cc2)c2ccc(F)cc2)CC1 [Ritanserin, reference compound] equal to or greater than 2%?
Response: Condition met

###

A collection of compounds and their measured Toxicity (Death Rate)
System: ddy male mice
test: Toxicity in mice, repeated oral administration
Type: in vivo, mouse
assay setup: ddy male mice, 200 mg/kg p.o. once a day for consecutive 4 days; dead animals per group
Structures can show the parent of a compound that is named as a salt.

Recorded Toxicity (Death Rate), per entry:
>  <compound>
O=c1n(CCN2CCC(=C(c3ccc(F)cc3)c3ccc(F)cc3)CC2)nc2n1CCCCC2 [Example 34, Hydrochloride Hemihydrate]

>  <Toxicity (Death Rate)>
1/4

$$$$
>  <compound>
Cc1nc2sccn2c(=O)c1CCN1CCC(=C(c2ccc(F)cc2)c2ccc(F)cc2)CC1 [Ritanserin, reference compound]

>  <Toxicity (Death Rate)>
3/5

$$$$
>  <compound>
O=C(c1ccc(F)cc1)C1CCN(CCn2c(=O)nc3n(c2=O)CCCC3)CC1

>  <Toxicity (Death Rate)>
0/5

$$$$

Prompt: Report measured Toxicity (Death Rate); entry is Cl.Cl.O=c1nc2n(c(=O)n1CCN1CCC(=C(c3ccc(F)cc3)c3ccc(F)cc3)CC1)CCCC2
Response: 0/5

###

Test system: Sympathetic Nerve α1 -Receptor
test: Antagonistic activity on sympathetic nerve α1-receptor: inhibition of the phenylephrine-induced increase in blood pressure in anesthetized rats
Assay type: in vivo
assay setup: SD-SLC male rat, 10 mg/kg p.o.; after 60 minutes from the administration; inhibition of blood pressure increase by phenylephrine 100 μg/kg i.v.
Procedure: A test compound dissolved in purified water was orally administered to an SD-SLC male rat at a dose of 10 mg/kg. After 30 minutes from the administration, the rat was anesthetized with urethane (1 g/kg, i.p.) and α-Chloralose (80 mg/kg, i.p.). A polyethylene cannula was inserted into the carotid artery, and the blood pressure was recorded on a polygraph by using a pressure transducer. […]
Where a name gives a salt, the structure may show the parent alone.
assay metric: Antagonistic Activity α1 (%)
A complete answer gives the number and then names the unit.

>  <molecule>
O=C(O)/C=C\C(=O)O.O=C(c1ccc(F)cc1)[C@@H]1CCN(CCn2nc3n(c2=O)CCCC3)C[C@H]1c1ccc(F)cc1 (relative stereo)

>  <Antagonistic Activity α1 (%)>
4%

$$$$
>  <molecule>
O=C(c1ccc(F)cc1)C1(O)CCN(CCn2c(=O)nc3n(c2=O)CCCC3)CC1 [Example 11, Dihydrochloride Hemihydrate]

>  <Antagonistic Activity α1 (%)>
0%

$$$$
>  <molecule>
Cl.Cl.O=c1nc2n(c(=O)n1CCN1CCC(=C(c3ccc(F)cc3)c3ccc(F)cc3)CC1)CCCC2

>  <Antagonistic Activity α1 (%)>
6%

$$$$
>  <molecule>
O=C(c1ccc(F)cc1)C1CCN(CCn2c(=O)nc3n(c2=O)CCCC3)CC1

>  <Antagonistic Activity α1 (%)>
39%

$$$$

Prompt: Name the recorded Antagonistic Activity α1 (%) of the molecule listed here: Cl.O=C(c1ccc(F)cc1)C1CCN(CCn2nc3n(c2=O)CCCC3)CC1
Response: 3%

Prompt: Quickly give me recorded Antagonistic Activity α1 (%) for O=C(c1ccc(F)cc1)C1CCN(CCn2c(=O)[nH]c3ccccc3c2=O)CC1 [Ketanserin, reference compound]
Response: 73%

Prompt: Please give the documented Antagonistic Activity α1 (%) of O=C(c1ccc(Cl)cc1)C1CCN(CCn2nc3n(c2=O)CCCC3)CC1 [Example 75, Hydrochloride]
Response: 17%

Prompt: Return Antagonistic Activity α1 (%) (reported value) for this molecule: O=c1nc2sccn2c(=O)n1CCN1CCC(=C(c2ccc(F)cc2)c2ccc(F)cc2)CC1 [Example 21, Hydrochloride]
Response: 3%
